target: recombinant CD73 (Homo sapiens (Human)); test: Inhibition of the CD73 enzyme in vitro (soluble recombinant CD73, AMP, Malachite Green); type: biochemical; conditions: recombinant CD73 0.5 nM, AMP 50 μM, 30 minutes at room temperature
measurementKind: IC50 (nM)
Unit nM implied. Number only.

Sample answers from the record:
CCOC(=O)C(Cc1ccc(OC(F)(F)F)cc1)(OC[C@H]1O[C@@H](n2cnc3c(N)nc(Cl)nc32)[C@@H](F)[C@@H]1O)C(=O)O (single isomer, unassigned) [compound 38]    686
Nc1nc(Cl)nc2c1ncn2[C@@H]1O[C@H](COC(Cc2ccc(NC(=O)c3cccs3)cc2)(C(=O)O)C(=O)O)[C@@H](O)[C@@H]1F [compound 140]    30
Cc1nnc(-c2ccc(CC(OC[C@H]3O[C@@H](n4cnc5c(N)nc(Cl)nc54)[C@@H](F)[C@@H]3O)(C(=O)O)C(=O)O)cc2)o1 [compound 94]    906
Nc1nc(Cl)nc2c1ncn2[C@@H]1O[C@H](COC(Cc2ccc3ccccc3c2)(C(=O)O)C(=O)O)[C@@H](O)[C@@H]1F [compound 17]    699
Nc1nc(Cl)nc2c1ncn2[C@@H]1O[C@H](COC(Cc2ccc(CC(=O)O)cc2)(C(=O)O)C(=O)O)[C@@H](O)[C@@H]1F [compound 78]    86
Nc1nc(Cl)nc2c1ncn2[C@@H]1O[C@H](COC(Cc2ccc(C(=O)O)cc2)(C(=O)O)C(=O)O)[C@H](O)[C@@H]1F [compound 145]    106

Which IC50 value is on record for Nc1nc(Cl)nc2c1ncn2[C@@H]1O[C@H](COC(Cc2ccccc2)(C(=O)O)C(=O)O)[C@@H](O)[C@@H]1F [compound 169] ?
119

Which IC50 value is on record for Nc1nc(Cl)nc2c1ncn2[C@@H]1O[C@H](COC(Cc2ccc(C(F)(F)F)c(F)c2)(C(=O)O)C(=O)O)[C@@H](O)[C@@H]1F [compound 60] ?
51

Which IC50 value is on record for C[C@@]1(F)[C@H](O)[C@@H](COC(Cc2ccc(C(=O)O)cc2)(C(=O)O)C(=O)O)O[C@H]1n1cnc2c(N)nc(Cl)nc21 [compound 117] ?
63900

Which IC50 value is on record for Nc1nc(Cl)nc2c1ncn2[C@@H]1O[C@H](COC(Cc2ccc3oc(C(=O)O)cc3c2)(C(=O)O)C(=O)O)[C@@H](O)[C@@H]1F [compound 88] ?
238

* * *

Attribute: pIC50
Biological target: recombinant CD73 (Homo sapiens (Human), UniProt P21589)
Sequence (P21589 27-547): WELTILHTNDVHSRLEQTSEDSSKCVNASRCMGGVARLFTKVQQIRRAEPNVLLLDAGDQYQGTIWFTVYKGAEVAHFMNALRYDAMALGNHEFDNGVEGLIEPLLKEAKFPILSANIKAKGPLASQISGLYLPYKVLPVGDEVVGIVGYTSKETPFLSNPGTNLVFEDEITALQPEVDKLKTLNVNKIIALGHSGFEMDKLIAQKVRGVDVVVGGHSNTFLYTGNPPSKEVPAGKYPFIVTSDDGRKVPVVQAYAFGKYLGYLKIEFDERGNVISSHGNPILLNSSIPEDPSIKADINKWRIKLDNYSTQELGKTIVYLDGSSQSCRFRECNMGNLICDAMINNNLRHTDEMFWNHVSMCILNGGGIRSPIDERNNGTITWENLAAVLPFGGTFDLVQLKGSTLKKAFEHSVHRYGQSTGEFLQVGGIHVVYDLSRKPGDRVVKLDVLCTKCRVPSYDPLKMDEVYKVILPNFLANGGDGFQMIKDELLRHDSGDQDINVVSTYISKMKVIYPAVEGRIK
Assay: Inhibition of the CD73 enzyme in vitro (soluble recombinant CD73, AMP, Malachite Green)
Assay type: biochemical
Details: recombinant CD73 0.5 nM, AMP 50 μM, 30 minutes at room temperature
Description: The concentration of inorganic phosphate was determined using a phosphate standard curve.
The value called pIC50 is obtained by taking minus log10 of the concentration in mol/L.

Nc1nc(Cl)nc2c1ncn2[C@@H]1O[C@H](COC(Cc2ccc(-c3cccnc3)cc2)(C(=O)O)C(=O)O)[C@@H](O)[C@@H]1F [compound 142]    7.17
Nc1nc(Cl)nc2c1ncn2[C@@H]1O[C@H](COC(Cc2nc3ccccc3s2)(C(=O)O)C(=O)O)[C@@H](O)[C@@H]1F [compound 97]    5.46
Nc1nc(Cl)nc2c1ncn2[C@@H]1O[C@H](COC(Cc2ccc(C(=O)O)s2)(C(=O)O)C(=O)O)[C@@H](O)[C@@H]1F [compound 77]    6.59

Which pIC50 value is on record for Nc1nc(Cl)nc2c1ncn2[C@@H]1O[C@H](COC(Cc2ccccc2)(C(=O)O)C(=O)O)C[C@@H]1F [compound 119] ?
4.55

Which pIC50 value is on record for Nc1nc(Cl)nc2c1ncn2[C@@H]1O[C@H](COC(Cc2ccccc2)(C(=O)O)C(=O)O)[C@@H](O)[C@@H]1Cl [compound 146] ?
6.74

Which pIC50 value is on record for Nc1nc(Cl)nc2c1ncn2[C@@H]1O[C@H](COC(Cc2nnn[nH]2)(C(=O)O)C(=O)O)[C@@H](O)[C@@H]1F [compound 50] ?
5.72

Which pIC50 value is on record for Nc1nc(Cl)nc2c1ncn2[C@@H]1O[C@H](COC(Cc2ccc(C(=O)O)c(F)c2)(C(=O)O)C(=O)O)[C@@H](O)[C@@H]1F [compound 58] ?
7.42

Which pIC50 value is on record for C[C@@]1(O)[C@H](O)[C@@H](COC(Cc2ccc(C(=O)O)cc2)(C(=O)O)C(=O)O)O[C@H]1n1cnc2c(N)nc(Cl)nc21 [compound 107] ?
4.37

Which pIC50 value is on record for Nc1nc(Cl)nc2c1ncn2[C@@H]1O[C@H](COC(Cc2ccc(S(N)(=O)=O)cc2)(C(=O)O)C(=O)O)[C@@H](O)[C@@H]1F [compound 86] ?
7.21

Which pIC50 value is on record for Nc1nc(Cl)nc2c1ncn2[C@@H]1O[C@H](COC(Cc2ccc(-c3nnn[nH]3)cc2)(C(=O)O)C(=O)O)[C@@H](O)[C@@H]1F [compound 54] ?
6.66
